Listing: GI50 of selected molecules
Test system: OVCAR-3
EXPERIMENT SUMMARY: NCI tumour cell line growth inhibition, 48 h
Activity calls are given as the source filed them. Cut-off read from the data, not from the text of the source: active = GI50 up to about 1.1 µM and inactive = higher. Non-standard residues stand in square brackets, D forms with d. Residues, ends and D or L forms follow the SMILES beside them. *: point of attachment. Ac5c = NC1(C(=O)O)CCCC1; Boc = CC(C)(C)OC(=O)*; tBu = CC(C)(C)*

{"columns": ["MOLECULE", "GI50"],
 "data": [
  ["O=[N+]([O-])c1ccc(-c2ccc(-c3csc(Nc4ccccc4)n3)o2)cc1", "19.3 µM (inactive)"],
  ["COC1(Cc2ccccc2)C(=O)c2ccccc2N1C(C)=O (configuration not stated)", "> 100 µM (inactive)"],
  ["CC1C[C@]2(C)C(=S)Nc3ccccc3[C@@H]2Nc2ccccc21 (some centres not stated)", "15.1 µM (inactive)"],
  ["O/N=N/c1cnccn1", "> 1250 µM (inactive)"],
  ["O=c1cccccc1NCCCCCCNc1cccccc1=O", "> 100 µM (inactive)"],
  ["O=[N+]([O-])c1ccc(C(O)(C#CCN2CCCC2)c2ccccc2)cc1 (configuration not stated)", "49 µM (inactive)"],
  ["CCOC(=O)C1C(=O)CC(O)(c2ccccc2)C(C(=O)OCC)C1c1ccc(OC)cc1 (configuration not stated)", "12.4 µM (inactive)"],
  ["COc1ccc(/C=C/C(=N/NC(=O)N/N=C(/C=C/c2ccc(OC)cc2)C(C)C)C(C)C)cc1", "41.9 µM (inactive)"],
  ["O=c1cc[nH]c2c1ccc1ncccc12", "> 100 µM (inactive)"],
  ["O=C(N/N=C/c1ccc([N+](=O)[O-])o1)c1ccc(C(=O)N/N=C/c2ccc([N+](=O)[O-])o2)cc1", "26.1 µM (inactive)"],
  ["Nc1nc(O)c2ncn([C@H]3CC[C@@H](CO)O3)c2n1", "> 100 µM (inactive)"],
  ["CCCCC#COP(=O)(OCC)OCC", "> 100 µM (inactive)"],
  ["CC(OC(C)(C)C)C1NC(=O)C(CCCCNC(=O)OC(C)(C)C)NC(=O)C(Cc2c[nH]c3ccccc23)NC(=O)C(Cc2ccccc2)NC(=O)C2(CCCC2)NC(=O)C(Cc2ccccc2)NC1=O (configuration not stated) (cyclo([Ac5c]FWK(Boc)T(tBu)F); configuration not given here)", "26 µM (inactive)"],
  ["CC(=O)O[C@H](C[C@@H](C)[C@H]1C(=O)[C@H](O)[C@@]2(C)C3CC[C@H]4C(C)(C)[C@@H](OC5OCC(O)C(O)C5O)CC[C@@]45C[C@@]35CC[C@]12C)[C@@H]1OC1(C)C (some centres not stated)", "2.29 µM (inactive)"],
  ["NNC(=O)CC(=O)Nc1ccc(S(=O)(=O)c2ccc(NC(=O)CC(=O)NN)cc2)cc1", "> 100 µM (inactive)"],
  ["CCN(CC)CCC(=O)O[C@H]1CC[C@H](CC(C)[C@H]2CC(=O)C(C)C=C(C)[C@H](OC(=O)CCN(CC)CC)C(OC)C(=O)[C@@H](C)CC(C)/C=C/C=C/C=C(C)C(OC)CC3CC[C@H](C)[C@](O)(O3)C(=O)C(=O)N3CCCCC3C(=O)O2)CC1OC (some centres not stated)", "0.202 µM (active)"],
  ["CS(=O)(=O)NNS(=O)(=O)c1ccc(Cl)cc1", "> 100 µM (inactive)"]
]}

====

Parameter GI50: see the listing below.
Test system: MDA-MB-231
EXPERIMENT SUMMARY: NCI tumour cell line growth inhibition, 48 h
Calls of active or inactive are those of the source. Rule as the data show it: active = GI50 up to about 1.1 µM and inactive = higher.

{"columns": ["COMPOUND", "GI50"],
 "data": [
  ["C/C=C/COc1cc(NC(=S)c2ccoc2C)ccc1OC", "29.5 µM (inactive)"],
  ["C=C1C(=O)O[C@H]2C[C@@]3(COC(C)=O)C=COC=C(COC(=O)C(C)C)C3CC12 (stereo partly specified)", "61.9 µM (inactive)"],
  ["C/C=C1/CC(C)C(C)(O)C(=O)OCC2C(O)CN3CCC(OC1=O)C23 (stereo unspecified)", "> 100 µM (inactive)"],
  ["Cc1ccc(C2c3c(n(C)c(=O)n(C)c3=O)OC(N(C)C)(N(C)C)C2(F)F)cc1 (stereo unspecified)", "> 100 µM (inactive)"],
  ["C=Cc1nc(C#N)c(N)o1", "> 100 µM (inactive)"],
  ["CCC1=CCC23C(=O)C=CC(=O)C2(C1)C(=O)c1cccc(OC)c1C3=O (stereo unspecified)", "15.1 µM (inactive)"],
  ["S=C1Nc2cnc3ccccc3c2SC1c1ccccc1 (stereo unspecified)", "> 100 µM (inactive)"],
  ["COC(=O)c1c(C(=O)OC)c2ccccn2c1-c1cc(OC)c(Br)c(=O)o1", "83.8 µM (inactive)"],
  ["C[C@@H]1OC2(O)[C@@H]3CCCN3C(=O)N(Cc3ccccc3)N2C1=O (stereo partly specified)", "> 100 µM (inactive)"],
  ["Nc1ccc(Oc2ccc(C3(c4ccc(Oc5ccc(N)cc5)cc4)C4CC5CC(C4)CC3C5)cc2)cc1", "17 µM (inactive)"],
  ["O=C1c2cc3c(cc2CC12Cc1ccccc1C2)CCC3", "23.6 µM (inactive)"],
  ["N#Cc1c(-c2ccccc2)[nH]c2ccc(Cl)cc2c1=O", "21.7 µM (inactive)"],
  ["Cc1cc(-c2no[n+]([O-])c2-c2cc(C)sc2S(C)(=O)=O)c(S(C)(=O)=O)s1", "> 100 µM (inactive)"],
  ["Cc1nc2sc3cccc(Cl)c3n2c(=O)c1/N=N/c1ccc(Cl)cc1", "71 µM (inactive)"],
  ["CC(C)[N+]([O-])(CCCNc1c2ccccc2nc2cccc([N+](=O)[O-])c12)C(C)C", "< 0.01 µM (active)"],
  ["CC(C)(C)OC(=O)NCCc1ccc(N)cc1", "> 100 µM (inactive)"],
  ["CC1=C(C(=O)NCCc2ccccc2)CC(C(=O)NCCc2ccccc2)=C(C)N1", "> 100 µM (inactive)"],
  ["CC1(C)C(=O)/C=C\\C(=O)C(C)(C)C(=O)/C=C\\C(=O)C(C)(C)C(=O)/C=C\\C(=O)C(C)(C)C(=O)/C=C\\C1=O", "26.2 µM (inactive)"],
  ["N#CC(N)c1ccc(OCCCCCCCCCCOc2ccc(C(N)C#N)cc2)cc1 (stereo unspecified)", "> 100 µM (inactive)"],
  ["NC(=S)N/N=C\\c1ccc(OCc2cccc(COc3ccc(/C=N/NC(N)=S)cc3)n2)cc1", "5.25 µM (inactive)"],
  ["CC(CC(=O)O)(CC(=O)O)C(=O)O", "> 100 µM (inactive)"]
]}

====

System: HCC 2998
EXPERIMENT SUMMARY: NCI tumour cell line growth inhibition, 48 h
Calls of active or inactive are those of the source. Rule as the data show it: active = GI50 up to about 1.1 µM and inactive = higher.

{"columns": ["MOLECULE", "SUBJECT OF TEST", "GI50"],
 "data": [
  ["COc1ccc(/C=C2/SC(c3ccc(Cl)cc3)N(NC(=O)CCCCCCCCC(=O)NN3C(=O)/C(=C\\c4ccc(OC)c(OC)c4)SC3c3ccc(Cl)cc3)C2=O)cc1OC (stereo not given)", "HCC 2998", "> 100 µM (inactive)"],
  ["CCOC(=O)/C(=C\\c1cccs1)P(=O)(OCC)OCC", "HCC 2998", "18.4 µM (inactive)"],
  ["N#Cc1c(O)nc2nn3c4ccc5ccccc5c4nnc3c2c1-c1ccc(Cl)cc1", "HCC 2998", "2.68 µM (inactive)"],
  ["Nc1nc(NCC2(CO)CCC2)cc(=O)[nH]1", "HCC 2998", "> 100 µM (inactive)"],
  ["O=C1C2Nc3ccccc3SC2C(=O)N1c1ccccc1C(F)(F)F (stereo not given)", "HCC 2998", "16.7 µM (inactive)"]
]}

====

compounds and their reported GI50
System: SF-539
EXPERIMENT SUMMARY: NCI tumour cell line growth inhibition, 48 h
Activity calls are given as the source filed them. No stated cut-off is given here; in the data, active = GI50 up to about 1.1 µM and inactive = higher.

{"columns": ["COMPOUND", "SUBJECT OF TEST", "GI50"],
 "data": [
  ["N#CC(N)c1ccc(OCCCCCCCCCCOc2ccc(C(N)C#N)cc2)cc1 (stereo unspecified)", "SF-539", "> 100 µM (inactive)"],
  ["N#Cc1c(O)nc2nn3c4ccc5ccccc5c4nnc3c2c1-c1ccc(Cl)cc1", "SF-539", "1.96 µM (inactive)"],
  ["Cc1nc2sc3cccc(Cl)c3n2c(=O)c1/N=N/c1ccc(Cl)cc1", "SF-539", "> 100 µM (inactive)"],
  ["Cc1c(-c2ccccc2)n[nH]c1NC1(C)C(=O)N(/N=C/c2ccccc2)N=C1c1ccccc1 (stereo unspecified)", "SF-539", "> 100 µM (inactive)"],
  ["CCOC(=O)C1(C(=O)OCC)[C@@H](c2ccccc2)C2=NO[C@@H]3CCC[C@H]1[C@H]23", "SF-539", "96.2 µM (inactive)"],
  ["CCC1=CCC23C(=O)C=CC(=O)C2(C1)C(=O)c1cccc(OC)c1C3=O (stereo unspecified)", "SF-539", "18.4 µM (inactive)"],
  ["Cc1ccc2ccc3ccc(C)nc3c2n1", "SF-539", "49.2 µM (inactive)"],
  ["O=C(c1ccc(Cl)cc1)C1OC12C(=O)Nc1c(Cl)cc(Cl)cc12 (stereo unspecified)", "SF-539", "75 µM (inactive)"],
  ["CP(=O)(CCSc1ccccc1)c1ccccc1 (stereo unspecified)", "SF-539", "> 100 µM (inactive)"],
  ["COC1=CC(=O)c2c(O)ccc(O)c2C1=O", "SF-539", "5.19 µM (inactive)"],
  ["CCC(c1ccc(N(C)C)cc1)C1NC(=S)NC1=O (stereo unspecified)", "SF-539", "> 100 µM (inactive)"]
]}

Where these numbers come from: ChEMBL document CHEMBL1201862
